Numbers sourced from patent US10640506B2.

- Study target: human JAK1 (a.a. 837-1142) (Homo sapiens)
- Assay comment: In vitro JAK kinase assay (HTRF, phosphorylation of biotinylated peptide), JAK1
- Assay type: biochemical
- Condition description: Table A; 1 mM ATP; read-out: JAK1 IC50
pIC50: −log10 of the molar value. Structures can show the parent of a compound that is named as a salt.
Readout kind: pIC50

Field pIC50 (system: human JAK1 (a.a. 837-1142) (Homo sapiens)) for entry N#CC[C@]1(n2cc(-c3ncnc4[nH]ccc34)cn2)C[C@@H](N2CCN(C(=O)Nc3ccc(F)cc3C(F)(F)F)CC2)C1 [Example 3a, (trifluoroacetate) Salt] = 7.00 to 7.60

Measured pIC50 for this entry N#CC[C@]1(n2cc(-c3ncnc4[nH]ccc34)cn2)C[C@@H](N2CCN(Cc3c(F)ccc(F)c3Cl)CC2)C1 [Example 16a] on human JAK1 (a.a. 837-1142) (Homo sapiens): > 8.00

# value of pIC50, human JAK1 (a.a. 837-1142) (Homo sapiens), item N#CC[C@]1(n2cc(-c3ncnc4[nH]ccc34)cn2)C[C@@H](N2CCN(C(=O)c3nc(C(F)(F)F)cs3)CC2)C1 [Example 13a] = > 8.00

// compound C[C@H]1CCCN1C(=O)N1CCN([C@H]2C[C@@](CC#N)(n3cc(-c4ncnc5[nH]ccc45)cn3)C2)CC1 [Example 4a] , assay human JAK1 (a.a. 837-1142) (Homo sapiens), pIC50 value: 7.00 to 7.60

Measured on human JAK1 (a.a. 837-1142) (Homo sapiens), N#CC[C@]1(n2cc(-c3ncnc4[nH]ccc34)cn2)C[C@@H](N2CCN(C(=O)c3cncc(F)c3)CC2)C1 [Example 10a] has a documented pIC50 of > 8.00

Reported human JAK1 (a.a. 837-1142) (Homo sapiens) pIC50 for item CN(C)c1ccc(CN2CCN([C@H]3C[C@@](CC#N)(n4cc(-c5ncnc6[nH]ccc56)cn4)C3)CC2)c(F)c1C#N [Example 2a] was > 8.00

---

- Study target: human JAK1 (a.a. 837-1142) (Homo sapiens, UniProt P23458)
- Sequence (P23458 849-1154): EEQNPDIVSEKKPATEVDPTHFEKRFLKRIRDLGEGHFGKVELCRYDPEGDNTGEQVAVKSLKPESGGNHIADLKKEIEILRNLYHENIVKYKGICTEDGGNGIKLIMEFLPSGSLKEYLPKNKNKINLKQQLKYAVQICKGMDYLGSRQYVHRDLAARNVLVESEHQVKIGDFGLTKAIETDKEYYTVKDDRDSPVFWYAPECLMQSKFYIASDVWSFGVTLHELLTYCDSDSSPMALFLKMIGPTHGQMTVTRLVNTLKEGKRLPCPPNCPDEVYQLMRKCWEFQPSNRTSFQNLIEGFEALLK
- Assay comment: In vitro JAK kinase assay (HTRF, phosphorylation of biotinylated peptide), JAK1
- Type: biochemical
- Condition description: Table C; 1 mM ATP; read-out: JAK1 IC50
pIC50: −log10 of the molar value.
Readout kind: pIC50

The value of pIC50 measured for the compound [2H][C@]1(N2CCN(C(=O)c3ccnc(C(F)(F)F)n3)CC2)C[C@@](CC#N)(n2cc(-c3ncnc4[nH]ccc34)cn2)C1 turned out to be > 8.00

---

- Study target: human JAK1 (a.a. 837-1142) (Homo sapiens)
- Assay comment: In vitro JAK kinase assay (HTRF, phosphorylation of biotinylated peptide), JAK1
- Assay type: biochemical
- Condition description: Table F; 1 mM ATP
pIC50: −log10 of the molar value.
Readout kind: pIC50

// CN(C)C1(c2cc(C(=O)N3CCN([C@H]4C[C@@](CC#N)(n5cc(-c6ncnc7[nH]ccc67)cn5)C4)CC3)nc(C(F)(F)F)n2)CCC1 : pIC50 value = > 8.00

Sure, the documented pIC50 for N#CC[C@]1(n2cc(-c3ncnc4[nH]ccc34)cn2)C[C@H](N2CCC(Oc3cc(CN4CCOCC4)nc(C(F)(F)F)n3)CC2)C1 is 7.00 to 7.60

Recorded pIC50 (molecule N#CC[C@]1(n2cc(-c3ncnc4[nH]ccc34)cn2)C[C@H](N2CCN(C(=O)c3cc(C(=O)O)nc(C(F)(F)F)n3)CC2)C1 ): 7.60 to 8.00

Looking up N#CC[C@]1(n2cc(-c3ncnc4[nH]ccc34)cn2)C[C@H](N2CCN(C(=O)c3cc(C4=NCCN4)cc(C(F)(F)F)n3)CC2)C1 , I found its pIC50 recorded as > 8.00

Record COCc1cc(C(=O)N2CCN([C@H]3C[C@](CC#N)(n4cc(-c5ncnc6[nH]ccc56)cn4)C3)CC2)nc(C(F)(F)F)n1 . Reported pIC50: > 8.00

get_value(item= COCc1cc(C(=O)N2CCN([C@H]3C[C@](CC#N)(n4cc(-c5ncnc6[nH]ccc56)cn4)C3)CC2)nc(C(F)(F)F)c1 , readout=pIC50) returns > 8.00

Sure, the documented pIC50 for CC(C)NCc1cc(C(=O)N2CCN([C@H]3C[C@](CC#N)(n4cc(-c5ncnc6[nH]ccc56)cn4)C3)CC2)nc(C(F)(F)F)n1 is > 8.00

pIC50 for N#CC[C@]1(n2cc(-c3ncnc4[nH]ccc34)cn2)C[C@@H](N2CCN(C(=O)NC3CCC3)CC2)C1 is 7.60 to 8.00

pIC50 recorded for this molecule, CC[C@@H](C)NC(=O)N1CCN([C@H]2C[C@@](CC#N)(n3cc(-c4ncnc5[nH]ccc45)cn3)C2)CC1 , is 7.60 to 8.00

Lab book: pIC50 of N#CC[C@]1(n2cc(-c3ncnc4[nH]ccc34)cn2)C[C@H](N2CCN(C(=O)NC(C(F)(F)F)C(F)(F)F)CC2)C1 noted as > 8.00

Looking up CN(C)Cc1cc(C#N)cc(OC2CCN([C@H]3C[C@](CC#N)(n4cc(-c5ncnc6[nH]ccc56)cn4)C3)CC2)c1 , I see its pIC50 listed as 7.60 to 8.00

# pIC50 of N#CC[C@]1(n2cc(-c3ncnc4[nH]ccc34)cn2)C[C@H](N2CCN(C(=O)c3cc(C#N)cc(C(F)(F)F)n3)CC2)C1 = > 8.00

Memo: CCNC(=O)N1CCN([C@H]2C[C@](CC#N)(n3cc(-c4ncnc5[nH]ccc45)cn3)C2)CC1 , reported pIC50: > 8.00

---

Provide the recorded IC50 for the entries that follow.
- Study target: JAK2 (a.a. 828-1132) (Homo sapiens)
- Construct: JAK2 (a.a. 828-1132); His tag (N)
- Assay comment: In vitro JAK kinase assay (HTRF, phosphorylation of biotinylated peptide), JAK2
- Assay type: biochemical
- Condition description: Table B; 1 mM ATP; read-out: JAK2 IC50

IC50 reported for this molecule N#CC[C@]1(n2cc(-c3ncnc4[nH]ccc34)cn2)C[C@H](N2CCN(C(=O)c3ccnc(C(F)(F)F)n3)CC2)C1 [Example 7b] : 0.025 to 0.1 µM

Briefly, IC50 measured for CCN(C)C(=O)N1CCN([C@H]2C[C@](CC#N)(n3cc(-c4ncnc5[nH]ccc45)cn3)C2)CC1 [Example 38] : 0.025 to 0.1 µM

Noted for CCS(=O)(=O)N1CCN([C@H]2C[C@](CC#N)(n3cc(-c4ncnc5[nH]ccc45)cn3)C2)CC1 [Example 35] : its IC50 reads < 0.01 µM

Sure, the documented IC50 for CN(C)Cc1cc(F)cc(CN2CCN([C@H]3C[C@](CC#N)(n4cc(-c5ncnc6[nH]ccc56)cn4)C3)CC2)c1 [Example 34] is 0.01 to 0.025 µM

---

Record form. Attribute: pIC50. Fill in for each entry.
- Study target: JAK2 (a.a. 828-1132) (Homo sapiens, UniProt O60674)
- Construct: JAK2 (a.a. 828-1132); His tag (N)
- Sequence (O60674 828-1132): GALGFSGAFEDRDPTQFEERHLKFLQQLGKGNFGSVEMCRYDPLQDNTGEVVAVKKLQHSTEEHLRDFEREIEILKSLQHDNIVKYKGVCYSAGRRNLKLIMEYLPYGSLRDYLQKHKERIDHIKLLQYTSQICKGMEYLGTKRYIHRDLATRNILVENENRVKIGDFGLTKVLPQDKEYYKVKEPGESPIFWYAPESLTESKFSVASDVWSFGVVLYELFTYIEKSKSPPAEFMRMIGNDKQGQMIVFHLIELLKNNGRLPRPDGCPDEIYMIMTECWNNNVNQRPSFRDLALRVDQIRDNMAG
- Assay comment: In vitro JAK kinase assay (HTRF, phosphorylation of biotinylated peptide), JAK2
- Format: biochemical
- Condition description: Table F; 1 mM ATP
pIC50: −log10 of the molar value.

Form: compound = CN(C)Cc1cc(C#N)cc(C(=O)N2CCN([C@H]3C[C@](CC#N)(n4cc(-c5ncnc6[nH]ccc56)cn4)C3)CC2)c1 ; pIC50 = 7.00 to 7.60

The compound listed as N#CC[C@]1(n2cc(-c3ncnc4[nH]ccc34)cn2)C[C@H](N2CCC(Oc3cc(C#N)cc(C(F)(F)F)n3)CC2)C1 (single isomer, unassigned) has a reported pIC50 of < 7.00

pIC50 recorded for this compound, COCc1cc(C(=O)N2CCN([C@H]3C[C@](CC#N)(n4cc(-c5ncnc6[nH]ccc56)cn4)C3)CC2)nc(C(F)(F)F)c1 , is 7.60 to 8.00

The reported value for CN(C)C1(c2cc(C(=O)N3CCN([C@H]4C[C@](CC#N)(n5cc(-c6ncnc7[nH]ccc67)cn5)C4)CC3)nc(C(F)(F)F)n2)CCC1 in terms of pIC50 is 7.00 to 7.60

---

Would you kindly list pIC50 for each of these compounds?
- Study target: human JAK1 (a.a. 837-1142) (Homo sapiens)
- Assay comment: In vitro JAK kinase assay (HTRF, phosphorylation of biotinylated peptide), JAK1
- Type: biochemical
- Condition description: Table F; 1 mM ATP
- Description: Compounds herein were tested for inhibitory activity of JAK targets according to the following in vitro assay described in Park et al., Analytical Biochemistry 1999, 269, 94-104. […] The phosphorylated peptide was detected by homogenous time resolved fluorescence (HTRF). […] Binding to the Europium labeled antibody took place for 40 minutes and HTRF signal was measured on a Fusion plate reader (Perkin Elmer, Boston, Mass.). […]
pIC50: −log10 of the molar value.

In plain terms, N#CC[C@]1(n2cc(-c3ncnc4[nH]ccc34)cn2)C[C@H](N2CCN(C(=O)N3CCC[C@H]3C(F)(F)F)CC2)C1 [Example 117] has a documented pIC50 of 7.00 to 7.60

Notebook: CC(C)(O)c1cc(OC2CCN([C@H]3C[C@@](CC#N)(n4cc(-c5ncnc6[nH]ccc56)cn4)C3)CC2)nc(C(F)(F)F)c1 (single isomer, unassigned) [Example 126] , pIC50 read as 7.60 to 8.00

Entry under test: CC(C)(C)NCc1cc(C(=O)N2CCN([C@H]3C[C@](CC#N)(n4cc(-c5ncnc6[nH]ccc56)cn4)C3)CC2)nc(C(F)(F)F)n1 [Example 57] . Its pIC50 was > 8.00
